System: Rattus norvegicus
TEST DETAILS: Natriuretic activity in rat assessed as per cage at 81 mg/kg, po
Format: functional
# label = Met if Activity < 0.9 mEq else Not met

Some solved entries appear below for comparison.
INSERT INTO measurements (compound, label) VALUES
  ('Cc1c(OCC(=O)O)cc2c(c1Cl)C(=O)C(C)(c1ccccc1)C2 (stereo not given)', 'Not met'),
  ('CC1(c2ccc(Cl)cc2)Cc2cc(OCC(=O)O)c(Cl)c(Cl)c2C1=O (stereo not given)', 'Met'),
  ('CC1(c2ccc([N+](=O)[O-])cc2)Cc2cc(OCC(=O)O)c(Cl)c(Cl)c2C1=O (stereo not given)', 'Not met'),
  ('O=C(O)COc1cc2c(c(Cl)c1Cl)C(=O)C(c1ccccc1)(c1ccccc1)C2', 'Not met');

Next:
### Prompt Answer whether the compound CC1(c2ccccc2)Cc2cc(OCc3nnn[nH]3)c(Cl)c(Cl)c2C1=O (stereo not given) has Activity strictly less than 0.9 mEq
### Response Met

###

Test system: Canis familiaris
TEST DETAILS: Diuretic activity in dog assessed as sodium level in urine per min at 5 mg/kg, iv relative to control
Format: functional, Canis lupus familiaris
Assignment: determine reported Activity for the given compounds.
Answers are plain numbers, in µEq/min.

INSERT INTO measurements (compound, subject_of_test, value_observed) VALUES
  ('CC1(c2ccc([N+](=O)[O-])cc2)Cc2cc(OCC(=O)O)c(Cl)c(Cl)c2C1=O (stereo not given)', 'Canis familiaris', 751);

Batch request: Activity per item, same order as input.
1. CC1(c2cccs2)Cc2cc(OCC(=O)O)c(Cl)c(Cl)c2C1=O (stereo not given)
2. CC1(c2ccc(Cl)cc2)Cc2cc(OCC(=O)O)c(Cl)c(Cl)c2C1=O (stereo not given)
3. O=C(O)COc1cc2c(c(Cl)c1Cl)C(=O)C1(c3ccccc3)CCCCC21 (stereo not given)

### Response
1: 503; 2: 305; 3: 276

### Prompt Entry CC1(c2ccc(CN)cc2)Cc2cc(OCC(=O)[O-])c(Cl)c(Cl)c2C1=O.[Na+] (stereo not given) : reported Activity = ?
### Response 497
